B1: TNNI2 (parent)
chain: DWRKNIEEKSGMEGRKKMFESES

Variants of: B1
procedure-text: protein stability index of a GFP-peptide fusion (GPS, HEK-293T) (PSI 1-6); higher = more stable;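 also: lentivirally expressed fusions sorted by FACS into six bins by GFP to DsRed ratio, PSI derived from sequencing read proportions per bin multiplied by bin number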
experimental-conditions: c terminus: native
Label rule, in plain words: protein stability index of 2 and up is Fulfilled, under 2 is Not fulfilled.

Please tell me: is the variant DWRKNIEEKSEMEGRKKMFESES at or over 2 in terms of protein stability index?
Fulfilled

Hello, I need to know if DWRKDIEEKSGMEGRKKMFESES has measured protein stability index not below 2. Thanks!
Not fulfilled

Say whether RWRKNIEEKSGMEGRKKMFESES shows protein stability index of 2 or more.
Fulfilled

Is protein stability index for DWRKNIEEKSGMDGRKKMFESES at or above 2?
Fulfilled

Given the entry DWRKNIEEKSGMEGRKFMFESES , answer whether its protein stability index meets or surpasses 2.
Fulfilled

Can DWRKNIEEKSSMEGRKKMFESES be said to have protein stability index at or above 2?
Fulfilled

Is reported protein stability index greater than or equal to 2 here: DWRKNIEEKSGMEGRDKMFESES
Fulfilled

Quick check: does DWRKNAEEKSGMEGRKKMFESES have protein stability index greater than or equal to 2?
Fulfilled

Determine whether measured protein stability index meets or exceeds 2 for DWRKNIEEKPGMEGRKKMFESES
Fulfilled

Determine whether this variant has protein stability index no lower than 2: DWNKNIEEKSGMEGRKKMFESES
Fulfilled

Dear colleague, could you confirm whether DWRKIIEEKSGMEGRKKMFESES has protein stability index at or above 2?
Fulfilled

Is protein stability index at least 2? Consider DWRKNIEEKSGMEGRWKMFESES
Not fulfilled

Given FWRKNIEEKSGMEGRKKMFESES , state whether its protein stability index is at least 2.
Not fulfilled

Quick check, protein stability index >= 2? DWRKNIEELSGMEGRKKMFESES
Fulfilled

Would you say DWRQNIEEKSGMEGRKKMFESES shows protein stability index at minimum 2?
Fulfilled

Textbook exercise: given the entry DWEKNIEEKSGMEGRKKMFESES , state whether its protein stability index is greater than or equal to 2.
Fulfilled

Given DWRKNILEKSGMEGRKKMFESES , state whether its protein stability index is at least 2.
Fulfilled

Quick check: does DWRKNIEEKSGMWGRKKMFESES have protein stability index greater than or equal to 2?
Not fulfilled

Quick check, protein stability index >= 2? DWRKNIEEKSGMEVRKKMFESES
Not fulfilled

Confirm if protein stability index reported for the variant DWRKNIEEKSGMEGRKKMAESES is 2 or above.
Fulfilled

Entry DWRKNIEEKSGMEGRKKMCESES : is its protein stability index no less than 2?
Fulfilled

For this variant, is measured protein stability index 2 or higher? DWRKNIEEKSGLEGRKKMFESES
Fulfilled

For this variant, is measured protein stability index 2 or higher? DWRKNIEEKSGMEGRKKMFEFES
Fulfilled

Is protein stability index for DGRKNIEEKSGMEGRKKMFESES at or above 2?
Fulfilled

# bool: protein stability index of DWRKNIEEKSGMEGGKKMFESES >= 2
Not fulfilled

Textbook exercise: given the entry DWRKNIEEKSGMEGRKKMWESES , state whether its protein stability index is greater than or equal to 2.
Not fulfilled

Please indicate if the recorded protein stability index for DWRKNIEEKSGMEGRKKMFHSES meets or exceeds 2.
Fulfilled

Can DWRKNIEEKSGMEGRKKMFEQES be said to have protein stability index at or above 2?
Fulfilled

Please tell me: is the variant DWRKNIEEKSGMEGHKKMFESES at or over 2 in terms of protein stability index?
Fulfilled

Test whether the variant VWRKNIEEKSGMEGRKKMFESES records protein stability index of 2 or higher.
Fulfilled
